B1: LINE1-full (parent)
chain: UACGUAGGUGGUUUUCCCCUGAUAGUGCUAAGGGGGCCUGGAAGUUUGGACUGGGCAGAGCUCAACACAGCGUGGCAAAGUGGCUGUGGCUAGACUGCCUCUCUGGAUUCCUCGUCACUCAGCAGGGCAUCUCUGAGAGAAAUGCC

# Variants of: B1
# experiment notes: self-cleavage, relative activity (ratio to wild type); higher = more cleavage; in vitro, sequencing; the parent is a self-cleaving ribozyme
Use fulfilled when the recorded self-cleavage is no lower than 1; use not fulfilled when it is lower.

* U62C C128A | not fulfilled
* U20C C146U | fulfilled
* A77U A79U | fulfilled
* U5A U130C | not fulfilled
* G4A A43U | fulfilled
* U13C A24U | fulfilled
* U81C U102A | fulfilled
* U39C G60A | not fulfilled
* A65G A142C | not fulfilled
* G27A U85C | not fulfilled
* A2G U143C | fulfilled
* U45A A64G | not fulfilled
* A22G C76G | fulfilled
* U52A U91A | not fulfilled
* A65C A124G | not fulfilled
* G35A G36C | fulfilled
* U26A G74U | fulfilled
* A6C U100C | not fulfilled
* G83C A94G | not fulfilled
* U62C C66U | not fulfilled
* A2C A65U | not fulfilled
* A107U A142G | fulfilled
* A107G U119A | fulfilled
* A92G A117G | not fulfilled
* G97C | not fulfilled
* A57G U130A | fulfilled
* C37U U132C | fulfilled
